Experiment: Differential scanning fluorimetry (DSF), apparent Tm of YggS forms
Assay type: physicochemical
Conditions: 2 μM protein + 2 μM (equimolar) PLP
experimental_endpoint: T m (°C) Apo +2 μM PLP
Give the value in °C but do not write °C after it.

Prompt: Provide T m (°C) Apo +2 μM PLP value for the following molecule: ΔK233/K234: E. coli YggS variant lacking the last two C-terminal residues K233 and K234 (protein, left off: His-tag, N-terminal, state not stated) MNDIAHNLAQVRDKISAAATRCGRSPEEITLLAVSKTKPASAIAEAIDAGQRQFGENYVQEGVDKIRHFQELGVTGLEWHFIGPLQSNKSRLVAEHFDWCHTIDRLRIATRLNDQRPAELPPLNVLIQINISDENSKSGIQLAELDELAAAVAELPRLRLRGLMAIPAPESEYVRQFEVARQMAVAFAGLKTRYPHIDTLSLGMSDDMEAAIAAGSTMVRIGTAIFGARDYS
Completion: 73.1
